# study target: TRIB2 (Homo sapiens, UniProt Q92519)
# Sequence (Q92519 whole entry): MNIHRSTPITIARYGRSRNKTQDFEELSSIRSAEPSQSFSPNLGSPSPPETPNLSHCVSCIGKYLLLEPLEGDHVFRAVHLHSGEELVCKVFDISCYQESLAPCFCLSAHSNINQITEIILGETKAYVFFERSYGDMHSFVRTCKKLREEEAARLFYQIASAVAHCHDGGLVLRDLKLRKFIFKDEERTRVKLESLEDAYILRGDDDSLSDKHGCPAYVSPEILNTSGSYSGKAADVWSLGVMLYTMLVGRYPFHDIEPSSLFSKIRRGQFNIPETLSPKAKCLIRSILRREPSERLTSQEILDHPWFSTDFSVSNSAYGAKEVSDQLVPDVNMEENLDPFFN
# assay summary: radiometric […]-ATP kinase assay with recombinant human TRIB2; supported by CETSA in PC3 cells
Here, each record is paired with measured IC50 data.
Only the number, expressed in nM, is required.

O=C(Nc1ccc2c(c1)CNCC2)c1n[nH]c2ccc(-c3cccnc3F)cc12 :: 0.74

Can you share its IC50? I mean this molecule: O=C1CCC(N2C(=O)c3ccc(NCCCCCCCCCC(=O)N4CCc5ccc(NC(=O)c6n[nH]c7ccc(-c8cccnc8F)cc67)cc5C4)cc3C2=O)C(=O)N1 (centres unmarked)
65.2
